assay: soluble on expression in E. coli; label from the status in PepcDB or PDB records

[
  {
    "sequence.entry": "MATCGRRDDILDLLKSLEQQTYKNFELIVVDQNDTPISDLFDEYKDKFSINYIYTPIKGLSRARNAGLKVADGDFIAFPDDDCIYEKNVLESILETFNSNKDVHFISTNTTNVEGTGSLIHAPNTDIILNNKYGFMGPSFTLFFTKQFVQDVGTFDEDLGVGSGTIYGAGEETDFVLRGMKQNYTGLFRKDLFVYHPVKEEIINEQSLKRAISYAGGFGRIIRLHYGFPYFLRAVAAATFRMTQNISNDKRKFHANRLRGIVRGYLK",
    "soluble on expression in E. coli": "not soluble"
  },
  {
    "sequence.entry": "PQLDEARTNGLMKTLFPHQVLSTIQASRILKTYNGVVIADSTGLGKTRVAINLAVMAINDGRNPLLIAPKSALETTWKDEMDKTHVHIDSKRSEYLSQHPDEAIKEIQGKDFIIVDEAHYFKSPGSNRYSVLRDLMAAGQKQIVLLTATP",
    "soluble on expression in E. coli": "not soluble"
  }
]
